- Measured On: T1, APC5383-AA
- T1 chain: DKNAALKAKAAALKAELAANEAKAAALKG
- Test Name: two-hybrid library CCmax;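 note: natural log of median RNA to DNA barcode read ratio; higher means stronger binding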
- Setup Conditions: mean of both orientations
Measured Quantity: interaction score
Write the value as a bare number.

Look over these answered cases.
[[record]]
binder = "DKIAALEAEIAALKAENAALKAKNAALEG [4H2143-AA]"
number = -1.98

[[record]]
binder = "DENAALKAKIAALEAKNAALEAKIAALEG [4H1845-AA]"
number = -1.57

[[record]]
binder = "DKLAAIKAELAAIEAKLAAIKAKNAALKG [APC1015-AA]"
number = -1.69

[[record]]
binder = "DENAALEAENAALEAKAAALKAELAAEEG [APC4436-AA]"
number = -1.76


Qu. Look up interaction score: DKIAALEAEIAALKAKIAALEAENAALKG [4H2148-AA]
Ans. -1.66

Qu. How about this binder: DELAAIEAEAAALEAKAAALKAEAAALEG [APC232-AA]
Ans. -2.15

Qu. Can you check DEIAALKAKIAALEAKIAALEAKNAALEG [4H807-AA] next?
Ans. -1.89

Qu. Same lookup for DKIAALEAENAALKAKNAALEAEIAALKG [4H2290-AA] , please.
Ans. -1.86

Source listed as paper PMC10397247.
